Tested on: HCT-15 colon
Protocol summary: NCI-60 one-dose screen, 48 h (100 = growth as untreated, 0 = no growth, -100 = all killed)
Assay conditions: 10 µM unless noted
About 83,000 compounds went through this panel and 20% of them were active in at least one assay; those are over-represented in the sample as a whole.
# reported growth; entries follow
# value in %; strip the unit string

For record Cn1cccc1C(=O)C1C(c2cccc([N+](=O)[O-])c2)C2C3CCCCC3CN2C12C(=O)Nc1ccc(Cl)cc12 (stereo not given) the listed growth is 41.7

Short answer for COc1ccc(OC)c(C(=O)/C=C/c2cc3c(c(OC)c2OC)OCO3)c1 : growth was 47.3

Entry Cc1ccc(C2=Nc3c(N)ncnc3NC(c3ccc4c(c3)OCO4)C2)cc1 (stereo not given) , growth reported as 34.6

The recorded growth for entry CNC(=O)c1cc(Oc2ccc3c(c2)sc2nc(-c4cc(OC)c(OC)c(OC)c4)cn23)ccn1 equals 54.1

Could you now consider this next molecule?
The recorded growth for COc1ccc(-c2nnc3n(C)c(=O)c4ccccc4n23)cc1N is 27.2

====

Tested on: SK-MEL-5 melanoma
Protocol summary: NCI-60 one-dose screen, 48 h (100 = growth as untreated, 0 = no growth, -100 = all killed)
Assay conditions: 10 µM unless noted
Compounds without any hit were thinned out: in the full panel of roughly 83,000, 20% have a hit.
# growth annotations
Hi! Could you send only the number? It should be in %, unit omitted.

Log: SK-MEL-5 melanoma, molecule COC(=O)c1cc(-c2ccc(OC)cc2)[nH]c1N/N=C/c1c(Cl)cccc1Cl , growth = -2.73

Others:
Case C#CCOc1cccc(Nc2ncnc3ccc(NC(=O)CCl)cc23)c1 , SK-MEL-5 melanoma, growth recorded as -92.8

Reported SK-MEL-5 melanoma growth for item COc1ccccc1Nc1nc2c(s1)C1=CC[C@H]3[C@@H]4CC[C@H]([C@H](C)CCCC(C)C)[C@@]4(C)CC[C@@H]3[C@@]1(C)CC2 was 100

Here N#C/C(=C\c1ccc(-c2ccc(Cl)cc2)o1)C(=O)Nc1ncc(Cc2ccc(Cl)cc2)s1 was tested on SK-MEL-5 melanoma, and its growth came to 94.7

Entry COCCn1cc(-c2nc(-c3cc4cccnc4n3CCOC)cs2)c2cc(OC)ccc21 , tested on SK-MEL-5 melanoma, has a reported growth of 36.7

# value of growth, SK-MEL-5 melanoma, item O=S(=O)(NCCCNc1nccc(-c2c(-c3ccc(F)c(O)c3)nc3occn23)n1)c1ccccc1 = 63

Cc1ccc(/C=C2\CN(C(=O)OC(C)(C)C)C/C(=C\c3ccc(C)cc3)C2=O)cc1 tested on SK-MEL-5 melanoma gave growth: 78.9

Item: CCN(CC)CCCN1C(=O)c2c(c(C)c3c(oc4cc(O)ccc43)c2C)C1=O | System: SK-MEL-5 melanoma | growth: -97.7

====

System: 786-0 renal
Protocol summary: NCI-60 one-dose screen, 48 h (100 = growth as untreated, 0 = no growth, -100 = all killed)
Assay conditions: 10 µM unless noted
Description: Cells are grown in 96 well plates and exposed to the test compound for 48 hours. Compounds are tested at a single concentration, which is 10^-5 M for most compounds. The reported endpoint is percent growth (GI% or GIPRCNT), where numbers from 0 - 100% represent growth inhibition, and numbers from -100% - 0 represent cell death. For example, a value of 40 represents 60% growth inhibition. A value of 0 means no net growth occurred over the course of the experiment. […]
Compounds without any hit were thinned out: in the full panel of roughly 83,000, 20% have a hit.
Measurement type: growth (%)
Answer with a number only, understood to be in %.

Entry CCS/C(Nc1ccccc1)=C(\C#N)C(=O)N/N=C/c1ccc(Cl)cc1Cl ; growth = 31.8

The recorded growth for COc1cc2oc(-c3cccc(NC(=O)c4cccc(Br)c4)c3)cc(=O)c2c(OC)c1OC is 59

The compound identified as NC(=O)c1c(NC(=O)c2ccccc2)sc2c1CCC(=O)C2 registered its growth at 28

Note to self: growth recorded for COc1ccc(-c2nc3c(c(-c4ccccc4)nn3-c3ccccc3)c(-c3ccc(N4CCOCC4)cc3)c2C#N)cc1 was 82.4

get_value(item= O=C(/C=C/c1cccs1)c1ccc(Cl)nc1 , readout=growth) returns 93.7

New cases:
For this compound ( O=C(N/N=C/c1ccc(F)cc1)c1ccc(C(F)(F)F)nc1Nc1cccc(C(F)(F)F)c1 ), measured growth is -29.7

The reported value for O=C(Cn1c(-c2ccc([N+](=O)[O-])cc2)nc2ccccc21)NNC(=O)c1cccnc1 in terms of growth is 93

For Cc1ccc(Sc2nnc(/N=C3\C(=O)Nc4ccccc43)s2)cc1 the compound record lists growth as 99.5

====

Tested on: K-562 leukemia
Protocol summary: NCI-60 one-dose screen, 48 h
Assay conditions: 10 µM unless noted
This is part of a sample that, as a whole, favours compounds with a hit. Of some 83,000 tested, about 20% had one in any assay. Calls of active or inactive are those of the source. Rule for the calls: active = growth percent below 10; inactive = the rest.
Select the matching outcome among y (active), n (inactive)

Study these solved cases before continuing.
Tell me the recorded outcome of this test for CC(C)(C)n1cc(-c2ccnc(NCCNS(=O)(=O)c3cccc4ccccc34)c2)c(-c2cccc(F)c2)n1 .
y

Just curious, what result did CCNc1nc(-c2ccc(Cl)c(OC)c2)c(-c2ccnc(NCCCNS(=O)(=O)c3ccc(Cl)cc3)n2)s1 get here?
n

For Cc1cc2c(O)c(-c3cc(Cl)ccc3Cl)c3sc(=O)oc3c2cc1C , which call appears in the assay record?
n

Each compound tested received a call. Report the one for Cc1cccc(Cl)c1NC(=O)c1ccc2nc(NC(=O)NCCN(C)C)sc2c1 .
n

How did this test come out for CCNc1cc(-c2cccc(OC(F)(F)F)c2)nc2ccc(N3CCCC3)cc12 ?
y

Hi, do you know how Cc1nnc(-n2c(O)cc(=O)n(-c3ccccc3)c2=S)nc1/C=C/c1ccc(N(C)C)cc1 came out in this test?
n

What classification did CCCC(O)Cn1ncc(C(=O)OCC)c1NC(=O)NCc1ccccc1F (stereo not drawn) end up with in this test?
n

Which outcome was assigned to O=C1c2cccc(NCCN=Cc3cc(O)ccc3O)c2C(=O)c2c(NCCN=Cc3cc(O)ccc3O)cccc21 in this test?
y

---
Recorded test outcome, item C[C@H](NC(=O)[C@@H](C)N)[C@H](Oc1ccc2c(cnn2-c2ccc(F)cc2)c1)c1ccc2c(c1)OCCO2
y

For this compound, state the assay outcome: Cc1ccc(NC(=S)NNC(=S)NNc2ccccc2)cc1C
y

Hey, what did the test say about O=c1oc2ccccc2cc1C1=NN=C(SCc2ccccc2)SC1 ?
n

Dear colleague, could you share the recorded outcome for CN1CCN(c2ccc(NC(=O)c3nc4ccc5[nH]ncc5c4c4c3CCCC4)cc2C(F)(F)F)CC1 when you have a moment?
y

# lookup: test call for CCOC(=O)c1c2c(n3ccc(C)cc13)C(=O)c1ccccc1C2=O
n

Field: outcome | Entry: CC(=O)Nc1nc2ccc(NS(=O)(=O)c3cccc4c(N(C)C)cccc34)cc2[nH]1
n

Query: recorded result category for C=CCc1c(O)c(C(=O)/C=C/c2ccc(Cl)cc2)c(OC)c2ccoc12 in this test
n

Recorded call for CCOC(=O)c1cnc2ccccc2c1Cl ?
n

Hello, I am checking results. What call was entered for C=C(C)[C@@H]1CC[C@]2(C(=O)NCC#CCN3CCN(C)CC3)CC[C@]3(C)[C@H](CC[C@@H]4[C@@](C)(CCC#N)[C@H](C(=C)C)CC[C@]43C)[C@@H]12 ?
y

Field: outcome | Entry: C#Cc1ccc(NC(=O)c2ccc(/C=C/C(=O)c3nccn3C)cc2)cc1
y

Give the logged outcome of this assay for the following compound: Brc1ccc2[nH]cc(-c3nonc3-c3c[nH]c4ccccc34)c2c1
n

What call does the record list for O=C1c2cccnc2C(=O)c2c1c(C(=O)NCCn1ccnc1)c1ccccn21 ?
n

Which outcome was entered for the compound COc1cc(N2C(=O)[C@H](O)C2c2ccc(SC)cc2)cc(OC)c1OC (stereo partly drawn) in this test?
y

// outcome(item) with item = Fc1cc2c(cc1Cl)N(c1ncnc3ccc(-c4cnc5[nH]ncc5c4)cc13)CC2
n

In this assay, the call recorded for COc1ccc(-c2nc3c(c(-c4ccccc4)nn3-c3ccccc3)c(-c3ccc(N4CCN(C)CC4)cc3)c2C#N)cc1 was what?
y

Hi, do you know how Cc1nc2sc(C(=O)Nc3cccc(Cl)c3C)c(N)c2cc1C(=O)c1ccccc1 came out in this test?
n

Per the records of this test, what outcome belongs to Nc1ncnc2c1N=C(c1ccc3c(c1)OCO3)CC(c1cccc(Nc3ccnc4cc(Cl)ccc34)c1)N2 (stereo not drawn) ?
y

Could you kindly confirm the outcome this assay logged for C=C1CC[C@@H]2[C@](C)(COC(C)=O)[C@H](OC(C)=O)CC[C@@]2(C)[C@@H]1CC(Sc1ccccc1)C1=CCOC1=O (stereo partly drawn) ?
y

Lab log entry: CCOC(=O)c1c(C)c2c(n1C)CSc1cc(C(=O)c3ccccc3)c(=O)[nH]c1-2 — outcome as called in the assay?
n

Assay result, entry O=S(=O)(NCCNc1cc(-c2c(-c3cccc(O)c3)nc3sccn23)ccn1)c1ccc(C(F)(F)F)cc1 — outcome?
n

# fetch the recorded call for O=C(Nn1c2c(sc1=NCc1ccccc1)C(=O)c1ccccc1C2=O)c1cc2ccc1CCc1ccc(cc1)CC2 here
n

Just for reference, PubChem BioAssay (NCI) is where these values come from.
